- measurement_target: human CLDN18.2 (human)
- assay_info: cell-based or functional assay
Listed next: entries and their corresponding ADCC EC50, Jurkat-CD16a v158-NFAT-luciferase effector cells, NIH-3T3-CLDN18.2 target cells.
The reply should contain only the number, in nM.

Example entries and their recorded answers appear below.
{"binder": "humanized antibody hz40F6-2.2 (antibody, human IgG1, kappa, V domains shown) VH: QVQLVESGGGVVQPGRSLRLSCAASGFTLTSYGVYWVRQAPGKGLEWVAVVWAGGNTNYNSALMSRFTISKDNSKSTLYLQMNSLRAEDTAVYYCARDRGRLLAMDYWGQGTLVTVSS VL: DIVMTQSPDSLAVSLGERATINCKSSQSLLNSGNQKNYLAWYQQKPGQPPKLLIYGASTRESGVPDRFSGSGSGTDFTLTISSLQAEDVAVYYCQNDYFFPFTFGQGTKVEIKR", "result_number": 0.01}
{"binder": "humanized antibody hz40F6-2.4 (antibody, human IgG1, kappa, V domains shown) VH: QVQLVESGGGVVQPGRSLRLSCTVSGFTLTSYGVYWVRQAPGKGLEWVAVVWAGGNTNYNSALKGRFTISKDNSKSTLYLQMNSLRAEDTAVYYCARDRGRLLAMDYWGQGTLVTVSS VL: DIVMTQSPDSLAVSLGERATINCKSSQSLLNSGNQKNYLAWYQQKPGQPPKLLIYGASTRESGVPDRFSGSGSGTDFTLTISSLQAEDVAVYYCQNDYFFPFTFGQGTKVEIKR", "result_number": 0.014}
{"binder": "IMAB362 (antibody, human IgG1, kappa, V domains shown, Positive control, prepared in-house; also called Claudiximab; TMAB362 [sic]) VH: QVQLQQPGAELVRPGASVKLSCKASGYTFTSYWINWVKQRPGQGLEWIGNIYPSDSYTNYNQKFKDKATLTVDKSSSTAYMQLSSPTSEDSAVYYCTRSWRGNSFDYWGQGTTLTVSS VL: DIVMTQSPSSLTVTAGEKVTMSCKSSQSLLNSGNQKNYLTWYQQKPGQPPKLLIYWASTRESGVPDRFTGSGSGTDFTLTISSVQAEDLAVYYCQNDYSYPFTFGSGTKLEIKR", "result_number": 0.023}

Switching to the query record.
[ask] Entry under review: humanized antibody hz40F6-1.2 (antibody, human IgG1, kappa, V domains shown) VH: QVQLVESGGGVVQPGRSLRLSCAASGFTLTSYGVYWVRQAPGKGLEWVAVVWAGGNTNYNSALMSRFTISKDNSKSTLYLQMNSLRAEDTAVYYCARDRGRLLAMDYWGQGTLVTVSS VL: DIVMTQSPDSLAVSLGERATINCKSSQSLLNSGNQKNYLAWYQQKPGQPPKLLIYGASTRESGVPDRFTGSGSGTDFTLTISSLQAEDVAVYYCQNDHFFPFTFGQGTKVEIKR . Reported ADCC EC50, Jurkat-CD16a v158-NFAT-luciferase effector cells, NIH-3T3-CLDN18.2 target cells?
[reply] 0.03
